assay_system: Alpha-1A adrenergic receptor (Bos taurus)
test: Binding affinity against alpha-1 adrenergic receptor was determined in calf cerebral cortex homogenates using [3H]prazosin as radioligand
Type: tissue-based

{"compound_string": "Cl.Cl.Clc1cn2ccnc2c(N2CCNCC2)n1", "endpoint_unit": "nM", "Ki": 250}

* * *

assay_system: Beta-1 adrenergic receptor (Cavia porcellus)
Sequence (B0FL73 whole entry): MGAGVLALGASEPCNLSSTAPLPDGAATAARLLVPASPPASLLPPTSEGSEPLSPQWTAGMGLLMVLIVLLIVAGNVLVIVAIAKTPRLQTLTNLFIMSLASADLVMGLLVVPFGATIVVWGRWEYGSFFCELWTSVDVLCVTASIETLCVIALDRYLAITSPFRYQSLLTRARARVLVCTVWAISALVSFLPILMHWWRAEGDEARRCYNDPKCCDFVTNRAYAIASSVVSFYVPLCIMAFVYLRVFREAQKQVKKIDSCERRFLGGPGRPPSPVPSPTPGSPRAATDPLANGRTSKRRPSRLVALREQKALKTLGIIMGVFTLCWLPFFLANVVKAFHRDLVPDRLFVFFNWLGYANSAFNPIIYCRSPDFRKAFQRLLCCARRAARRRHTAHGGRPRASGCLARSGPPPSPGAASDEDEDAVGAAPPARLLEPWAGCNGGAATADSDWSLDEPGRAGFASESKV
pKi: −log10 of the molar value.
Items are presented alongside their recorded pKi.

{"compound_string": "Cc1cnc(N2CCNCC2)c2nccn12.Cl", "pKi": 6.44}
{"compound_string": "Cc1cnc(N2CCNCC2)c2ncc(C)n12.Cl", "pKi": 6.40}
{"compound_string": "Cc1cn2c(C)cnc2c(N2CCNCC2)n1.Cl", "pKi": 6.82}
{"compound_string": "CC(C)c1cnc2c(N3CCNCC3)nccn12.Cl", "pKi": 5.52}
{"compound_string": "CN1CCN(c2ncc(Br)n3ccnc23)CC1", "pKi": 6.30}
{"compound_string": "Cc1cn2ccnc2c(N2CCNCC2)n1.Cl", "pKi": 6.66}
{"compound_string": "Cc1cnc2c(N3CCNCC3)nccn12.Cl", "pKi": 5.62}
{"compound_string": "Cc1cnc(N2CCN(C)CC2)c2nccn12", "pKi": 5.55}
{"compound_string": "CCc1cnc2c(N3CCNCC3)nccn12.Cl", "pKi": 5.30}
{"compound_string": "Brc1cnc(N2CCNCC2)c2ncc(Br)n12", "pKi": 6.20}
{"compound_string": "CN1CCN(c2nccn3c(Br)cnc23)CC1", "pKi": 5.20}
{"compound_string": "c1cn2ccnc2c(N2CCNCC2)n1", "pKi": 6.40}
{"compound_string": "Cc1cn2ccnc(N3CCNCC3)c2n1.Cl", "pKi": 6.51}
{"compound_string": "CCCc1cnc2c(N3CCNCC3)nccn12.Cl", "pKi": 5.11}
{"compound_string": "Brc1cnc(N2CCNCC2)c2nccn12", "pKi": 6.77}

* * *

pKi: −log10 of the molar value.
Form: system (Alpha-2A adrenergic receptor (Bos taurus, UniProt Q28838)), quantity (pKi), values below.

{"compound_string": "Cc1cn2ccnc2c(N2CCNCC2)n1.Cl", "pKi": 6.72}
{"compound_string": "CC(C)c1cnc2c(N3CCNCC3)nccn12.Cl", "pKi": 6.43}
{"compound_string": "Brc1cnc(N2CCNCC2)c2nccn12", "pKi": 6.74}
{"compound_string": "CN1CCN(c2nccn3c(Br)cnc23)CC1", "pKi": 5.87}

* * *

Items are presented alongside their recorded inhibition.
assay_system: Alpha-1A adrenergic receptor (Bos taurus)
Sequence (whole entry): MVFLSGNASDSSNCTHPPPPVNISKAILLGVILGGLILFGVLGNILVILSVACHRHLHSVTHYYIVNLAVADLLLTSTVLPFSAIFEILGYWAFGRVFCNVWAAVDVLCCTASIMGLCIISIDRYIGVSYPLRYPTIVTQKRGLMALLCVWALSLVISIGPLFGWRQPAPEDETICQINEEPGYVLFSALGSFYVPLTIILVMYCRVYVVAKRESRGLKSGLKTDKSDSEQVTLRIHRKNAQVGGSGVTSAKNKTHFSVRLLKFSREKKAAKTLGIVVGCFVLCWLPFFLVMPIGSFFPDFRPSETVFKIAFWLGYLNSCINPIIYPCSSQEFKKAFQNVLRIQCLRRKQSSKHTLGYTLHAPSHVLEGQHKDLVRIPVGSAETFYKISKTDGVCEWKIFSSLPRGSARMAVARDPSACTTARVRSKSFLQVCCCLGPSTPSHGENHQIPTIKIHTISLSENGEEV
test: Inhibition of binding of [3H]prazosin to Alpha-1 adrenergic receptor in calf cerebral cortex homogenates at 10000 nM
Format: tissue-based
reported_property: inhibition (%)

{"compound": "C1=CN2CCN=C2C(N2CCNCC2)=N1.O=C(O)C/C=C\\CC(=O)O", "reported_result": 15}
{"compound": "CN1CCN(c2nccn3c(Br)cnc23)CC1", "reported_result": 4}
{"compound": "CC1CN=C2C(N3CCNCC3)=NC=CN21.O=C(O)C/C=C\\CC(=O)O (stereo unspecified)", "reported_result": 12}
{"compound": "Cc1cnc(N2CCN(C)CC2)c2nccn12", "reported_result": 45}
{"compound": "CN1CCN(c2ncc(Br)n3ccnc23)CC1", "reported_result": 22}
{"compound": "CCc1cnc2c(N3CCNCC3)nccn12.Cl", "reported_result": 30}

* * *

test: Binding affinity against Alpha-1 adrenergic receptor of calf cerebral cortex homogenates using [3H]prazosin
Format: tissue-based, Bos taurus
pKi: −log10 of the molar value.
Given measured pKi, output condition met if it is greater than or equal to 6 and condition not met if not.

{"compound_string": "Cc1cn2c(C)cnc2c(N2CCNCC2)n1.Cl", "class_name": "condition met"}
{"compound_string": "Cc1cn2ccnc2c(N2CCNCC2)n1.Cl", "class_name": "condition met"}
{"compound_string": "Cc1cnc2c(N3CCNCC3)nccn12.Cl", "class_name": "condition not met"}
{"compound_string": "Cc1cnc(N2CCNCC2)c2nccn12.Cl", "class_name": "condition not met"}
{"compound_string": "CCCc1cnc2c(N3CCNCC3)nccn12.Cl", "class_name": "condition not met"}
{"compound_string": "c1cn2ccnc2c(N2CCNCC2)n1", "class_name": "condition not met"}
{"compound_string": "Cl.Clc1cnc2c(N3CCNCC3)nccn12", "class_name": "condition not met"}
{"compound_string": "CC(C)c1cnc2c(N3CCNCC3)nccn12.Cl", "class_name": "condition not met"}

* * *

assay_system: Alpha-2A adrenergic receptor (Bos taurus, UniProt Q28838)
Sequence (Q28838 whole entry): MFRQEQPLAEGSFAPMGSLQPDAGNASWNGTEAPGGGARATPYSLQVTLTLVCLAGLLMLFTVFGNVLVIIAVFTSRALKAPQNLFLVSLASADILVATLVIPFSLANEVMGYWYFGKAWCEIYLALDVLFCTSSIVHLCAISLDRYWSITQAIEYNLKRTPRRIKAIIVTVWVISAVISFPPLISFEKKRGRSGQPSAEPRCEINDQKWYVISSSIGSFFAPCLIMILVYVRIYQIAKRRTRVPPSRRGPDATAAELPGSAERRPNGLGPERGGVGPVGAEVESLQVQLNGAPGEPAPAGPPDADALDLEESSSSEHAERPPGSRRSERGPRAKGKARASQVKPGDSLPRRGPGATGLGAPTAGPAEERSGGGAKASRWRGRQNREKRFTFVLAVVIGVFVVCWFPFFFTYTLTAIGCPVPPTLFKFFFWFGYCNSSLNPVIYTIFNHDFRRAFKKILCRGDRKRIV
pKi: −log10 of the molar value.

{"molecule": "Brc1cnc(N2CCNCC2)c2ncc(Br)n12", "pKi": 4.93}
{"molecule": "CN1CCN(c2nccn3ccnc23)CC1", "pKi": 5.99}
{"molecule": "Cc1cnc(N2CCN(C)CC2)c2nccn12", "pKi": 7.09}
{"molecule": "Cc1cn2ccnc(N3CCNCC3)c2n1.Cl", "pKi": 7.29}
{"molecule": "Cc1cnc2c(N3CCNCC3)nccn12.Cl", "pKi": 6.62}
{"molecule": "Cc1cnc(N2CCNCC2)c2nccn12.Cl", "pKi": 6.85}
{"molecule": "Cc1cnc(N2CCNCC2)c2ncc(C)n12.Cl", "pKi": 6.47}
{"molecule": "Cc1cn2c(C)cnc2c(N2CCNCC2)n1.Cl", "pKi": 6.21}
{"molecule": "CCc1cnc2c(N3CCNCC3)nccn12.Cl", "pKi": 6.28}
{"molecule": "C1=CN2CCN=C2C(N2CCNCC2)=N1.O=C(O)C/C=C\\CC(=O)O", "pKi": 6.06}
{"molecule": "CC1CN=C2C(N3CCNCC3)=NC=CN21.O=C(O)C/C=C\\CC(=O)O (stereo not drawn)", "pKi": 5.80}
{"molecule": "CCCc1cnc2c(N3CCNCC3)nccn12.Cl", "pKi": 6.32}
{"molecule": "CN1CCN(c2ncc(Br)n3ccnc23)CC1", "pKi": 6.57}
